# target.or.system: UniProt Q15831
# Sequence (whole entry): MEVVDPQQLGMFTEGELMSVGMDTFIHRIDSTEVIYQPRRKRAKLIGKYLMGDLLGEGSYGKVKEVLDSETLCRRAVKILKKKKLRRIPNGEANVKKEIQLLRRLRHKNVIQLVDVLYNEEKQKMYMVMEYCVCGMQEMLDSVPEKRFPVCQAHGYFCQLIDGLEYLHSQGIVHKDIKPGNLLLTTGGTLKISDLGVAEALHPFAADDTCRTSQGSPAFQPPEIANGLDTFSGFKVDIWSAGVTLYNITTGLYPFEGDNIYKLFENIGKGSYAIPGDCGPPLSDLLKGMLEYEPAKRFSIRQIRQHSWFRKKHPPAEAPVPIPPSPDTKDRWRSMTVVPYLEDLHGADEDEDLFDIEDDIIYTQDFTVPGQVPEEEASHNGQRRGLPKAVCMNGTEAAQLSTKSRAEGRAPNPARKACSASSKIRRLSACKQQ
# procedure.summary: pIC50, kinobeads binding competition
# condition.label: cell material: Lysate mix
measurement.type: pIC50

Please give the measured pIC50 for this molecule: `CCNC(=O)c1cc(Nc2cc(C)[nH]n2)nc(N2CCN(Cc3ccc(S(=O)(=O)F)cc3)CC2)n1` 4.61

Also, `C#CCNC(=O)c1cc(Nc2cc(C)[nH]n2)nc(N2CCN(Cc3ccc(S(=O)(=O)F)cc3)CC2)n1` please. 4.78

Also, `C#CCNC(=O)c1cc(Nc2cc(C3CC3)[nH]n2)nc(N2CCN(Cc3ccc(S(=O)(=O)F)cc3)CC2)n1` please. 6.42

Also, `CCNC(=O)c1cc(Nc2cc(C3CC3)[nH]n2)nc(N2CCN(Cc3ccc(S(=O)(=O)F)cc3)CC2)n1` please. 5.4

* * *

# target.or.system: CLK4 (UniProt Q9HAZ1)
# Sequence (Q9HAZ1 whole entry, looked up): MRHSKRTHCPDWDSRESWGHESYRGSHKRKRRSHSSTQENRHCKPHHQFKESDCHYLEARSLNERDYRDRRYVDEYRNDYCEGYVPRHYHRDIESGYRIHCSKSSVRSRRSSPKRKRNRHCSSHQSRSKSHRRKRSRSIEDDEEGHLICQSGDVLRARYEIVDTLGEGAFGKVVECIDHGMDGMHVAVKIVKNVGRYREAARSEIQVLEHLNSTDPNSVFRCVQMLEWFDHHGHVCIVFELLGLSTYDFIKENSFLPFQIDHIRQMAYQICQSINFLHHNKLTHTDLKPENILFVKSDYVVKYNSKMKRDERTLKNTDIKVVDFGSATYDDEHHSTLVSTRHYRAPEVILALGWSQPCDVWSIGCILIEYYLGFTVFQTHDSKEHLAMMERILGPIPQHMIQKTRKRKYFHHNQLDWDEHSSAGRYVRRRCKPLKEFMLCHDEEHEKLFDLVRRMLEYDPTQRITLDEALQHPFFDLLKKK
# procedure.summary: pIC50, kinobeads binding competition
# condition.label: cell material: Lysate mix
measurement.type: pIC50
Keep it simple and answer with nothing but the number.

Please give the measured pIC50 for this compound: `C#CCNC(=O)c1cc(Nc2cc(C3CC3)[nH]n2)nc(N2CCN(Cc3ccc(S(=O)(=O)F)cc3)CC2)n1` 5.2

Further cases:
Please give the measured pIC50 for this compound: `CCNC(=O)c1cc(Nc2cc(C3CC3)[nH]n2)nc(N2CCN(Cc3ccc(S(=O)(=O)F)cc3)CC2)n1` 5.05

* * *

# target.or.system: FER (UniProt P16591)
# Sequence (P16591 whole entry, looked up): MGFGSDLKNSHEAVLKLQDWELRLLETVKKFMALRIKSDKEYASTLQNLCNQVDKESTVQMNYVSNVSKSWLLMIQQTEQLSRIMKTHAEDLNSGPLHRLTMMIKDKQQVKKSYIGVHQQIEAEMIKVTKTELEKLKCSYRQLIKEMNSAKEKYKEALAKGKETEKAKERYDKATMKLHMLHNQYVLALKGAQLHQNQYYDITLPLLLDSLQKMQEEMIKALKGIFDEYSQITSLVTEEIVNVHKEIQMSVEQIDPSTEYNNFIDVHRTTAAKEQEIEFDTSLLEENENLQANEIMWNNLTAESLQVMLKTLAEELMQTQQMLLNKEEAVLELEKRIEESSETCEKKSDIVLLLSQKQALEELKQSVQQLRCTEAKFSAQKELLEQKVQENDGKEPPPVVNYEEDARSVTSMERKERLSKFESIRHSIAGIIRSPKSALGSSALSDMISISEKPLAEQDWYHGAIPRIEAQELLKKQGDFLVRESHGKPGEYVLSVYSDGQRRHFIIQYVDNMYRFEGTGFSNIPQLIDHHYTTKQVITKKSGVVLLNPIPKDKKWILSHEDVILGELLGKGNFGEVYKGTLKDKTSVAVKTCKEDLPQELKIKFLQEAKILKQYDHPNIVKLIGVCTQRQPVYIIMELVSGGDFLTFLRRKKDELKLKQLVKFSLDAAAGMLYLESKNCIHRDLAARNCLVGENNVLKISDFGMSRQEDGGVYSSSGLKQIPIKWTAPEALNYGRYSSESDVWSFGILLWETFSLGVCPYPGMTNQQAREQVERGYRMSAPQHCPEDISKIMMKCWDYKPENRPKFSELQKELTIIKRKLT
# procedure.summary: pIC50, kinobeads binding competition
# condition.label: cell material: Lysate mix
measurement.type: pIC50

Record lookup: for FER (UniProt P16591), what pIC50 belongs to `C#CCNC(=O)c1cc(Nc2cc(C3CC3)[nH]n2)nc(N2CCN(Cc3ccc(S(=O)(=O)F)cc3)CC2)n1` ? 5.92

Also, `CCNC(=O)c1cc(Nc2cc(C)[nH]n2)nc(N2CCN(Cc3ccc(S(=O)(=O)F)cc3)CC2)n1` please. 4.72

Also, `CCNC(=O)c1cc(Nc2cc(C3CC3)[nH]n2)nc(N2CCN(Cc3ccc(S(=O)(=O)F)cc3)CC2)n1` please. 5.62

Also, `C#CCNC(=O)c1cc(Nc2cc(C)[nH]n2)nc(N2CCN(Cc3ccc(S(=O)(=O)F)cc3)CC2)n1` please. 4.78

* * *

# target.or.system: UniProt Q96GD4
# Sequence (Q96GD4 whole entry): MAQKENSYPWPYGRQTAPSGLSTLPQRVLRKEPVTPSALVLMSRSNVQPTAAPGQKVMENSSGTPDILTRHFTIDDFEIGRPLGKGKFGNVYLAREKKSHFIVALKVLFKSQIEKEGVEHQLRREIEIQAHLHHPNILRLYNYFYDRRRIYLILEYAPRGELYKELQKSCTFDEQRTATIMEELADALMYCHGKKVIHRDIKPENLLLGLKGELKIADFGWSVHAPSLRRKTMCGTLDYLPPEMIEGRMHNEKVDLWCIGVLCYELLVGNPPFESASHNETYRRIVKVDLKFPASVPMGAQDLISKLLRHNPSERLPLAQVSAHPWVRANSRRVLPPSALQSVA
# procedure.summary: pIC50, kinobeads binding competition
# condition.label: cell material: Lysate mix
measurement.type: pIC50

Please give the measured pIC50 for this compound: O=C(NCCNC(=O)c1cc(Nc2cc(C3CC3)[nH]n2)nc(N2CCN(Cc3ccc(S(=O)(=O)F)cc3)CC2)n1)OC1CC/C=C/CCC1 (stereo unspecified) 4.98

Also, `CCNC(=O)c1cc(Nc2cc(C3CC3)[nH]n2)nc(N2CCN(Cc3ccc(S(=O)(=O)F)cc3)CC2)n1` please. 5.94

Also, `C#CCNC(=O)c1cc(Nc2cc(C3CC3)[nH]n2)nc(N2CCN(Cc3ccc(S(=O)(=O)F)cc3)CC2)n1` please. 6.22

Also, Cc1cc(Nc2cc(C(=O)NCCNC(=O)OC3CC/C=C/CCC3)nc(N3CCN(Cc4ccc(S(=O)(=O)F)cc4)CC3)n2)n[nH]1 (stereo unspecified) please. 4.92

Also, `CCNC(=O)c1cc(Nc2cc(C)[nH]n2)nc(N2CCN(Cc3ccc(S(=O)(=O)F)cc3)CC2)n1` please. 6.13

Also, `C#CCNC(=O)c1cc(Nc2cc(C)[nH]n2)nc(N2CCN(Cc3ccc(S(=O)(=O)F)cc3)CC2)n1` please. 5.94

* * *

# target.or.system: UniProt O95747
# Sequence (O95747 whole entry, looked up): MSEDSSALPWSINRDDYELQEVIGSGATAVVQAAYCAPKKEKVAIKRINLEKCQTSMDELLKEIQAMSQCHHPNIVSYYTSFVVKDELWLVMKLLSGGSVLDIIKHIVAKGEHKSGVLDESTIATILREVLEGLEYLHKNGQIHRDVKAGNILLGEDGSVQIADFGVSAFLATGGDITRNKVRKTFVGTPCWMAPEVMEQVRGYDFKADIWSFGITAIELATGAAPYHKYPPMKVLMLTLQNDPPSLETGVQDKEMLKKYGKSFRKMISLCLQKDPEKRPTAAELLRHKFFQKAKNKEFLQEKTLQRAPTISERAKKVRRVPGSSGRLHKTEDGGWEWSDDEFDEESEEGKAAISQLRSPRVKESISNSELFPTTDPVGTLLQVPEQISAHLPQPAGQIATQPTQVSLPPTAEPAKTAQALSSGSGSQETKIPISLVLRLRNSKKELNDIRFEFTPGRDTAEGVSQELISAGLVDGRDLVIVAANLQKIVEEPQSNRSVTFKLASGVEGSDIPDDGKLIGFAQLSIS
# procedure.summary: pIC50, kinobeads binding competition
# condition.label: cell material: Lysate mix
measurement.type: pIC50
Keep it simple and answer with nothing but the number.

Please give the measured pIC50 for this molecule: `C#CCNC(=O)c1cc(Nc2cc(C3CC3)[nH]n2)nc(N2CCN(Cc3ccc(S(=O)(=O)F)cc3)CC2)n1` 5.54

// below: pIC50 requested for another molecule
Please give the measured pIC50 for this molecule: `CCNC(=O)c1cc(Nc2cc(C3CC3)[nH]n2)nc(N2CCN(Cc3ccc(S(=O)(=O)F)cc3)CC2)n1` 5.24

* * *

# target.or.system: UniProt Q9UPZ9
# Sequence (Q9UPZ9 whole entry): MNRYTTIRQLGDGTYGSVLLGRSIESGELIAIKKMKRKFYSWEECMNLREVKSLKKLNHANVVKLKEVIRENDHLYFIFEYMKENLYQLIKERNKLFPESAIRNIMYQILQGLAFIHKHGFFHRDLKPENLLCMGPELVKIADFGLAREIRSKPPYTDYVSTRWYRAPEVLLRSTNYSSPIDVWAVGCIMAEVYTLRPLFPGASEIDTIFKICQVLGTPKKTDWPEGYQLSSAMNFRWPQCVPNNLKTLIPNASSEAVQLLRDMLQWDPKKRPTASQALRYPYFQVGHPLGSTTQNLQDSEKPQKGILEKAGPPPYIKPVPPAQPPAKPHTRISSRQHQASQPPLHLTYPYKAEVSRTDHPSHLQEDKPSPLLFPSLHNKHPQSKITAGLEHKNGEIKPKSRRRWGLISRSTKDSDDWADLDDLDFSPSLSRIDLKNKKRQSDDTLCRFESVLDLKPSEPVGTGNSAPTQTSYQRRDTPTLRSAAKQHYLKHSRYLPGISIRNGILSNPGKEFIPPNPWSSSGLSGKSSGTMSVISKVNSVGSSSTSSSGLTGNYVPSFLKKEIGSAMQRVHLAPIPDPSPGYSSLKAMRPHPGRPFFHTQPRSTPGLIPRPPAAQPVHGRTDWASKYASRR
# procedure.summary: pIC50, kinobeads binding competition
# condition.label: cell material: Lysate mix
measurement.type: pIC50

Please give the measured pIC50 for this compound: `CCNC(=O)c1cc(Nc2cc(C3CC3)[nH]n2)nc(N2CCN(Cc3ccc(S(=O)(=O)F)cc3)CC2)n1` 6.46

Also, `C#CCNC(=O)c1cc(Nc2cc(C)[nH]n2)nc(N2CCN(Cc3ccc(S(=O)(=O)F)cc3)CC2)n1` please. 5.43

Also, O=C(NCCNC(=O)c1cc(Nc2cc(C3CC3)[nH]n2)nc(N2CCN(Cc3ccc(S(=O)(=O)F)cc3)CC2)n1)OC1CC/C=C/CCC1 (stereo unspecified) please. 5.38

Also, `C#CCNC(=O)c1cc(Nc2cc(C3CC3)[nH]n2)nc(N2CCN(Cc3ccc(S(=O)(=O)F)cc3)CC2)n1` please. 6.53

Also, `CCNC(=O)c1cc(Nc2cc(C)[nH]n2)nc(N2CCN(Cc3ccc(S(=O)(=O)F)cc3)CC2)n1` please. 5.64

* * *

# target.or.system: PRKAA2 (UniProt P54646)
# Sequence (P54646 whole entry, looked up): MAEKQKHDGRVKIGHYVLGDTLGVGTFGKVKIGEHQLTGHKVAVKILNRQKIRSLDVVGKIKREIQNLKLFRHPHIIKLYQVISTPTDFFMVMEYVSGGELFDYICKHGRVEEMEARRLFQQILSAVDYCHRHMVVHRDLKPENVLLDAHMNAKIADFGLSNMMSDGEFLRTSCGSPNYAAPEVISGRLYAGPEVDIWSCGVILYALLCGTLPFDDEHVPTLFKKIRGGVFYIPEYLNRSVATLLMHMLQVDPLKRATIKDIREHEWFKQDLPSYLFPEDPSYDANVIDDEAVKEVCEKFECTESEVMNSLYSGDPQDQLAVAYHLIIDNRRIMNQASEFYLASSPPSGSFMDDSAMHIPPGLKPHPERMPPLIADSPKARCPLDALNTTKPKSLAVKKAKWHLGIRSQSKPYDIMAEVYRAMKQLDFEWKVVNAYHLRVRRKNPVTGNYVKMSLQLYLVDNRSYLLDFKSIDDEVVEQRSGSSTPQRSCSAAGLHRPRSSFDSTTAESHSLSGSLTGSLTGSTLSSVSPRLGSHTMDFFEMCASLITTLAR
# procedure.summary: pIC50, kinobeads binding competition
# condition.label: cell material: Lysate mix
measurement.type: pIC50

Please give the measured pIC50 for this compound: `C#CCNC(=O)c1cc(Nc2cc(C3CC3)[nH]n2)nc(N2CCN(Cc3ccc(S(=O)(=O)F)cc3)CC2)n1` 7.31

Also, Cc1cc(Nc2cc(C(=O)NCCNC(=O)OC3CC/C=C/CCC3)nc(N3CCN(Cc4ccc(S(=O)(=O)F)cc4)CC3)n2)n[nH]1 (stereo unspecified) please. 5.31

Also, O=C(NCCNC(=O)c1cc(Nc2cc(C3CC3)[nH]n2)nc(N2CCN(Cc3ccc(S(=O)(=O)F)cc3)CC2)n1)OC1CC/C=C/CCC1 (stereo unspecified) please. 5.5

Also, `C#CCNC(=O)c1cc(Nc2cc(C)[nH]n2)nc(N2CCN(Cc3ccc(S(=O)(=O)F)cc3)CC2)n1` please. 6.53

Also, `CCNC(=O)c1cc(Nc2cc(C3CC3)[nH]n2)nc(N2CCN(Cc3ccc(S(=O)(=O)F)cc3)CC2)n1` please. 7.04

Also, `CCNC(=O)c1cc(Nc2cc(C)[nH]n2)nc(N2CCN(Cc3ccc(S(=O)(=O)F)cc3)CC2)n1` please. 7.35

* * *

pIC50 for assorted compounds
# target.or.system: MELK (UniProt Q14680)
# Sequence (Q14680 whole entry, looked up): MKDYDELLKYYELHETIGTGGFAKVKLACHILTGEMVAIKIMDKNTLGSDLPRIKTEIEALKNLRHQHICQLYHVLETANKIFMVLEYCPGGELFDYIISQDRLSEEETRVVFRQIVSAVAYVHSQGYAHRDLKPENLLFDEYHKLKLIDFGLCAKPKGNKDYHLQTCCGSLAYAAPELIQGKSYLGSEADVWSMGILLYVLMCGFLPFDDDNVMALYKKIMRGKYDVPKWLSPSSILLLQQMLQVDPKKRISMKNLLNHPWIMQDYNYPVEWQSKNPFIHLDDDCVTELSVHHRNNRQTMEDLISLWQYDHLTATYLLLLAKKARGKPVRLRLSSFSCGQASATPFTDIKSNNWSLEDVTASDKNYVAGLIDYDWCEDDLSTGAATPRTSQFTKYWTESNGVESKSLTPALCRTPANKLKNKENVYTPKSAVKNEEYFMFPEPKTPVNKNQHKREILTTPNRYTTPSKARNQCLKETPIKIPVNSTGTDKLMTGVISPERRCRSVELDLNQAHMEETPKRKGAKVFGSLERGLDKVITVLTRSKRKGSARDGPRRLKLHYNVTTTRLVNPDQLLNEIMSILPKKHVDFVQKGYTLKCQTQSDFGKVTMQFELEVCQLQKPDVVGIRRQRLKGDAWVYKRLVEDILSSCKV
# procedure.summary: pIC50, kinobeads binding competition
# condition.label: cell material: Lysate mix

Record lookup: for MELK (UniProt Q14680), what pIC50 belongs to `CCNC(=O)c1cc(Nc2cc(C)[nH]n2)nc(N2CCN(Cc3ccc(S(=O)(=O)F)cc3)CC2)n1` ? < 4.52

Also, `C#CCNC(=O)c1cc(Nc2cc(C3CC3)[nH]n2)nc(N2CCN(Cc3ccc(S(=O)(=O)F)cc3)CC2)n1` please. < 4.52

* * *

pIC50 for assorted molecules
# target.or.system: UniProt O94768
# Sequence (O94768 whole entry): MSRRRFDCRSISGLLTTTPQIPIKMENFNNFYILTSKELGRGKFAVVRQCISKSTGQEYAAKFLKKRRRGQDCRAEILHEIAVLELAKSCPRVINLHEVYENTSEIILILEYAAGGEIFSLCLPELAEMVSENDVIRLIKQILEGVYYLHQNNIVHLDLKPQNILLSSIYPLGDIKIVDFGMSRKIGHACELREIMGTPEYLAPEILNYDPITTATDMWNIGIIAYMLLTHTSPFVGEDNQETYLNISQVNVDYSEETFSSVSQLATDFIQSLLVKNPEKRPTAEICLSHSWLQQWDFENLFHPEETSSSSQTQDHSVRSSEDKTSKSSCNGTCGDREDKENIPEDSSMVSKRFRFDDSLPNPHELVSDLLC
# procedure.summary: pIC50, kinobeads binding competition
# condition.label: cell material: Lysate mix

Record lookup: for UniProt O94768, what pIC50 belongs to `C#CCNC(=O)c1cc(Nc2cc(C3CC3)[nH]n2)nc(N2CCN(Cc3ccc(S(=O)(=O)F)cc3)CC2)n1` ? < 4.52

Also, `CCNC(=O)c1cc(Nc2cc(C3CC3)[nH]n2)nc(N2CCN(Cc3ccc(S(=O)(=O)F)cc3)CC2)n1` please. < 4.52

Also, Cc1cc(Nc2cc(C(=O)NCCNC(=O)OC3CC/C=C/CCC3)nc(N3CCN(Cc4ccc(S(=O)(=O)F)cc4)CC3)n2)n[nH]1 (stereo unspecified) please. < 4.52

Further cases:
Record lookup: for UniProt O94768, what pIC50 belongs to `CCNC(=O)c1cc(Nc2cc(C)[nH]n2)nc(N2CCN(Cc3ccc(S(=O)(=O)F)cc3)CC2)n1` ? < 4.52

Also, `C#CCNC(=O)c1cc(Nc2cc(C)[nH]n2)nc(N2CCN(Cc3ccc(S(=O)(=O)F)cc3)CC2)n1` please. < 4.52

Also, O=C(NCCNC(=O)c1cc(Nc2cc(C3CC3)[nH]n2)nc(N2CCN(Cc3ccc(S(=O)(=O)F)cc3)CC2)n1)OC1CC/C=C/CCC1 (stereo unspecified) please. < 4.52
